Literature survey of IC50 (system: Corticotropin-releasing factor receptor 1 (Rattus norvegicus)).
assay_system: Corticotropin-releasing factor receptor 1 (Rattus norvegicus)
Sequence (P35353 whole entry): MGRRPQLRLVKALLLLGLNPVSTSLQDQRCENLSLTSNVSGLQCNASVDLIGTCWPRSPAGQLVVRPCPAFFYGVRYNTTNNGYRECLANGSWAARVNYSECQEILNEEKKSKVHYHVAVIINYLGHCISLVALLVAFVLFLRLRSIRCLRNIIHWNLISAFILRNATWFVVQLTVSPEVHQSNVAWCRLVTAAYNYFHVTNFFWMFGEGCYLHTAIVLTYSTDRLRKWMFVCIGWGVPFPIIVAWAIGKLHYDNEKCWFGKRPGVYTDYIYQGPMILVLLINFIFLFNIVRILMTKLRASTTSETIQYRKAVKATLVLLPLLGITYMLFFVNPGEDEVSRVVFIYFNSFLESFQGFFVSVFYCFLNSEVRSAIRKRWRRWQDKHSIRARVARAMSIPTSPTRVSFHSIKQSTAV
result_type: IC50 (nM)

CCC(C1CC1)n1nc(C)nc(Nc2cc(C)c(OC)nc2C)c1=O (stereo unspecified)    6.5
COc1cc(Br)c2c(c1)OCCN2c1nc(Cl)cn([C@H](C)C2CC2)c1=O    19
COC[C@H](C1CC1)n1cc(Cl)nc(Nc2cc(C)c(OC(F)F)nc2C)c1=O    0.24
COc1ccc(Nc2nccn([C@H](C)C3CC3)c2=O)c(C(F)(F)F)n1    150
COC[C@@H](C)n1cc(Cl)nc(Nc2cc(C)c(OC)nc2C)c1=O    14
COCCN(CCF)c1nc(C)nc2c(-c3ccc(OC)nc3C)c(C)nn12    5.5
COc1cc(Br)c2c(c1)CCN2c1nc(Cl)cn([C@H](C)C2CC2)c1=O    0.94
COc1nc(C)c(Nc2nc(Cl)cn([C@H](COC(=O)c3ccccc3)C3CC3)c2=O)cc1C    1.5
COc1nc(C)c(Nc2nc(Cl)cn([C@H](COC(=O)Nc3ccc(Cl)cc3Cl)C3CC3)c2=O)cc1C    1.7
CCCC(CCC)n1c(CC)nc2c1C(=O)N(C)CN2c1ccc(Cl)cc1    173
CCCCC(CC)n1c(CC)nc2c1C(=O)N(C)CN2c1ccc(Cl)cc1Cl (stereo unspecified)    18
CCC(CC)Oc1cc(C)nc(Oc2c(C)cc(C)cc2C)c1N(C)C    25
COC[C@@H](C1CC1)n1cc(Cl)nc(Nc2cc(C)c(OCCF)cc2C)c1=O    2.4
CCCCN(CC)c1cc(C)nc2c1NC(=O)CN2c1ccc(OC)cc1Cl    0.3
C[C@H](C1CC1)n1cc(Cl)nc(Nc2c(Cl)cc(OC(F)F)cc2Cl)c1=O    0.46
CCC(CC)Oc1cc(C)nc(Oc2c(C)cc(F)cc2C)c1C    32
CCOc1ccc(Nc2nc(C)nn(C(COC)C3CC3)c2=O)c(C(F)(F)F)n1 (stereo unspecified)    3
COc1cc(C)c(Nc2nc(C)nn(C(C)C3CC3)c2=O)c(C)c1 (stereo unspecified)    68
CC[C@H](C1CC1)n1cc(Cl)nc(Nc2c(C)cc(OC)cc2C)c1=O    0.52
COC[C@@H](C1CC1)n1cc(Cl)nc(Nc2cc(C)c(O)cc2C)c1=O    280
CCc1nc2c(n1C(CC)C1CC1)C(=O)N(C)CN2c1ccc(Cl)cc1Cl (stereo unspecified)    14
COc1nc(C)c(Nc2nc(C#N)cn([C@H](C)C3CC3)c2=O)cc1C    10
CCC(C1CC1)n1cc(Cl)nc(Nc2c(Cl)cc(C#N)cc2Cl)c1=O (single isomer, unassigned)    2.8
COc1cc(C)c(Nc2nc(Cl)cn([C@@H](CF)C3CC3)c2=O)cc1C    1.1
COC[C@@H](C1CC1)n1cc(Cl)nc(Nc2ccc(OC(F)F)nc2C)c1=O    0.8
C[C@H](C1CC1)n1cc(Cl)nc(Nc2c(Cl)cc(S(C)(=O)=O)cc2Cl)c1=O    63
C[C@@H](C1CC1)n1cc(Cl)nc(Nc2c(Cl)cc(C#N)cc2Cl)c1=O    6.3
CC[C@H](COC)n1cc(Cl)nc(Nc2c(C)cc(C)cc2C)c1=O    1.4
COCCN(CCCF)c1nc(C)nc2c(-c3ccc(OC)nc3)c(C)nn12    35
CCOc1cc(C)c(Oc2nc(C)cc(OC(CC)CC)c2C)c(C)c1    20
COc1cc(Cl)c(Nc2nc(Cl)cn([C@@H](COCCF)C3CC3)c2=O)c(Cl)c1    0.6
COC[C@H](C1CC1)n1cc(C#N)nc(Nc2cc(C)c(OC)nc2C)c1=O    12
C/C=C(\CC)Oc1cc(C)nc(Oc2c(C)cc(C)cc2C)c1C (mixture of isomers)    16
CCC(CC)Oc1cc(C)nc(Oc2c(C)cc(OC)cc2C)c1C    2
CC[C@H](C1CC1)n1cc(Cl)nc(Nc2c(Cl)cc(C(F)(F)F)cc2Cl)c1=O    1.3
C[C@H](C1CC1)n1cc(Cl)nc(Nc2c(Cl)cc(Cl)cc2C#N)c1=O    18
COCC(COC)n1cc(Cl)nc(Nc2cc(C)c(OC)cc2C)c1=O    2.1
CC[C@H](C1CC1)n1cc(Cl)nc(Nc2c(Cl)cc(OC(F)(F)F)cc2Cl)c1=O    1.8
CC[C@H](C1CC1)n1cc(Cl)nc(Nc2cc(C)c(OC)nc2C)c1=O    0.28
CCCN(CCC)c1cc(C)nc2c1NC(=O)CN2c1ccc(C#N)cc1Cl    1.2
